A compilation of published IC50 results with MERTK (Homo sapiens).
property: IC50

{"chemical-smiles": "CCCCNc1ncc2c(OC)ncc([C@H]3CC[C@H](O)CC3)c2n1", "result": "≤ 100 nM"}
{"chemical-smiles": "COC[C@H](C)Nc1ncc2c(-c3ccc([C@H](C)N4CCCC4)cc3)cc([C@H]3CC[C@H](O)CC3)n2n1", "result": "≤ 100 nM"}
{"chemical-smiles": "COc1cc2nccc(Oc3ccc(NC(=O)c4cn(CC5CCSCC5)cc(-c5ccc(C)cc5)c4=O)nc3)c2cc1OC", "result": "5 nM"}

----------
A compilation of published IC50 results with MERTK (Homo sapiens).
property: IC50

{"chemical-smiles": "C[C@@H](CC(F)F)Nc1ncc2c(-c3ccc(S(C)(=O)=O)nc3)cc([C@H]3CC[C@H](O)CC3)n2n1", "tgt": "MERTK (Homo sapiens)", "result": "≤ 100 nM"}
{"chemical-smiles": "CCN(CC)S(=O)(=O)c1ccc(-c2c[nH]c3nc(Nc4ccc(CN5CCN(C)CC5)cc4)nc(OCCOC)c23)cc1", "tgt": "MERTK (Homo sapiens)", "result": "> 1000 nM"}
{"chemical-smiles": "COc1cc2nccc(Oc3cnc(NC(=O)c4nn(C5CCOCC5)cc(-c5ccc(F)cc5)c4=O)nc3)c2cc1OC", "tgt": "MERTK (Homo sapiens)", "result": "6 nM"}
{"chemical-smiles": "CC1(Nc2ncc3c(OC4CCOCC4)ncc(-c4cccc(NS(C)(=O)=O)c4)c3n2)CC1", "tgt": "MERTK (Homo sapiens)", "result": "≤ 100 nM"}

----------
A compilation of published IC50 results with MERTK (Homo sapiens).
property: IC50

{"molecule": "COC[C@H](C)Nc1ncc2c(-c3cnn(C4COC4)c3)cc(C3CCSCC3)n2n1", "tgt": "MERTK (Homo sapiens)", "result": "≤ 100 nM"}
{"molecule": "COC[C@H](C)Nc1ncc2c(O[C@H]3CCOC3)ncc([C@H]3CC[C@H](O)CC3)c2n1", "tgt": "MERTK (Homo sapiens)", "result": "≤ 100 nM"}
{"molecule": "CCOC(=O)c1csc(N2CC[C@@H](NC(=O)c3cc(-c4cnn(C)c4)cnc3N)C2)n1", "tgt": "MERTK (Homo sapiens)", "result": "> 1000 nM"}
{"molecule": "Cn1cc(-c2cnc(N)c(C(=O)N[C@@H]3CCN(C(=O)c4ccc(-c5cc(F)ccc5Cl)cc4)C3)c2)cn1", "tgt": "MERTK (Homo sapiens)", "result": "10 to 100 nM"}
{"molecule": "CC[C@H](C)Nc1ncc2c(OC3C[C@H]4CC[C@@H](C3)O4)ncc([C@H]3CC[C@H](O)CC3)c2n1 (some centres unmarked)", "tgt": "MERTK (Homo sapiens)", "result": "≤ 100 nM"}
{"molecule": "COC[C@H](C)Nc1ncc2c(-c3cnn(CC4CNC(=O)C4)c3)cc([C@H]3CC[C@H](O)CC3)n2n1 (some centres unmarked)", "tgt": "MERTK (Homo sapiens)", "result": "≤ 100 nM"}
{"molecule": "Cn1cc(-c2cnc(N)c(C(=O)N[C@@H]3CCN(C(=O)Nc4cccc(-c5ccc(CN)cc5)c4)C3)c2)cn1", "tgt": "MERTK (Homo sapiens)", "result": "100 to 1000 nM"}
{"molecule": "CCOc1ccn(-c2ccc(F)cc2)c(=O)c1C(=O)Nc1ccc(Oc2ccnc3cc(OCCCN(C)C4CCC4)c4c(c23)OCCO4)c(F)c1", "tgt": "MERTK (Homo sapiens)", "result": "≤ 50 nM"}
{"molecule": "COC[C@H](C)Nc1ncc2c(-c3cc(C)nc(C)c3)cc([C@H]3CC[C@H](O)CC3)n2n1", "tgt": "MERTK (Homo sapiens)", "result": "≤ 100 nM"}
{"molecule": "Cn1cc(-c2cnc(N)c(C(=O)N[C@@H]3CCN(C(=O)c4ccc(-c5ccc(CC6CCN(CCO)CC6)cc5)cc4)C3)c2)cn1", "tgt": "MERTK (Homo sapiens)", "result": "10 to 100 nM"}
{"molecule": "CCOc1ncc(CC2CCN(C)CC2)c2nc(N[C@@H](C)CC)ncc12", "tgt": "MERTK (Homo sapiens)", "result": "1000 to 10000 nM"}
{"molecule": "Cn1cc(-c2cnc(N)c(C(=O)N[C@@H]3CCN(C(=O)c4cccc(-c5cccc(C(=O)N6CCNCC6)c5)c4)C3)c2)cn1", "tgt": "MERTK (Homo sapiens)", "result": "> 1000 nM"}
{"molecule": "CCCCNc1cc2c(cn1)c(=O)n(C1CCN(C)CC1)cc2[C@H]1CC[C@H](O)CC1", "tgt": "MERTK (Homo sapiens)", "result": "≤ 100 nM"}
{"molecule": "CC(C)n1cc(C(=O)Nc2ccc(Oc3ccnc4cc(OCC(C)(C)O)c5c(c34)OCCO5)c(F)c2)c(=O)n(-c2ccc(F)cc2)c1=O", "tgt": "MERTK (Homo sapiens)", "result": "≤ 50 nM"}
{"molecule": "Cn1cc(-c2cnc(N)c(C(=O)N[C@@H]3CCN(C(=O)c4ccc5cc(OCCN6CCCC6)ccc5c4)C3)c2)cn1", "tgt": "MERTK (Homo sapiens)", "result": "100 to 1000 nM"}
{"molecule": "COc1cc2nccc(Oc3ccc(NC(=O)c4cc(C#N)c(C)n(-c5ccc(F)cn5)c4=O)cc3F)c2nc1OC", "tgt": "MERTK (Homo sapiens)", "result": "≤ 100 nM"}
{"molecule": "C[C@H]1CCCN1C1(C)CCc2ccc(-c3cnc4[nH]nc(-c5ccc(C(C)(C)O)c(Cl)c5)c4c3)cc2CC1 (some centres unmarked)", "tgt": "MERTK (Homo sapiens)", "result": "100 to 1000 nM"}
{"molecule": "Nc1ncc(-c2cnn(C3CCOCC3)c2)cc1-c1noc(-c2ccccc2)n1", "tgt": "MERTK (Homo sapiens)", "result": "1000 to 10000 nM"}
{"molecule": "COC[C@H](C)Nc1ncc2c(-c3cnn(C(C)(C)C(=O)C4C[C@H]5COC[C@H]5C4)c3)cc([C@H]3CC[C@H](O)CC3)n2n1 (some centres unmarked)", "tgt": "MERTK (Homo sapiens)", "result": "≤ 100 nM"}
{"molecule": "COC[C@H](C)Nc1ncc2c(-c3cnn(C(C)(C)c4nnco4)c3)cc([C@H]3CC[C@H](O)CC3)n2n1", "tgt": "MERTK (Homo sapiens)", "result": "≤ 100 nM"}

----------
pIC50: −log10 of the molar value.
A compilation of published pIC50 results with MERTK (Homo sapiens, UniProt Q12866).

{"compound": "COC[C@H](C)Nc1ncc2c(-c3cnn(C(C)(C)C(=O)N4CCN(C)CC4)c3)cc([C@H]3CC[C@H](O)CC3)n2n1", "tgt": "MERTK (Homo sapiens, UniProt Q12866)", "pIC50": "≥ 7.00"}
{"compound": "COc1cc2nccc(Oc3cc(Cl)c(NC(=O)c4cn(C)c(=O)n(-c5ccc(F)cc5)c4=O)cc3F)c2c2c1OCCO2", "tgt": "MERTK (Homo sapiens, UniProt Q12866)", "pIC50": "≥ 7.30"}
{"compound": "COC[C@H](C)Nc1ncc2c(-c3ccnc(N4C[C@H]5CC[C@@H](C4)O5)c3)cc([C@H]3CC[C@H](O)CC3)n2n1", "tgt": "MERTK (Homo sapiens, UniProt Q12866)", "pIC50": "≥ 7.00"}
{"compound": "CC(C)c1cc(Nc2nc(N3CCCC3C(=O)Nc3ccc(F)nc3)nc3c2CCC3)n[nH]1 (single isomer, unassigned)", "tgt": "MERTK (Homo sapiens, UniProt Q12866)", "pIC50": 8.42}
{"compound": "COC[C@H](C)Nc1ncc2c(OC3C[C@H](C)N(C)[C@@H](C)C3)ncc([C@H]3CC[C@H](O)CC3)c2n1 (stereo partly drawn)", "tgt": "MERTK (Homo sapiens, UniProt Q12866)", "pIC50": "≥ 7.00"}
{"compound": "C[C@@H](CCO)Nc1ncc2c(OC3CCOCC3)ncc([C@H]3CC[C@H](O)CC3)c2n1", "tgt": "MERTK (Homo sapiens, UniProt Q12866)", "pIC50": "≥ 7.00"}

----------
A compilation of published pIC50 results with MERTK (Homo sapiens, UniProt Q12866).
pIC50: −log10 of the molar value.

{"chemical-smiles": "COc1ccccc1-c1ccc(C(=O)N2CC[C@@H](NC(=O)c3cc(-c4cnn(C)c4)cnc3N)C2)cc1", "pIC50": "7.00 to 8.00"}
{"chemical-smiles": "CC(C)n1cc(-c2ccc(F)cc2)c(=O)c(C(=O)Nc2ncc(Oc3ccnc(N)c3Cl)cn2)n1", "pIC50": 8.10}
{"chemical-smiles": "Cn1cc(-c2cnc(N)c(C(=O)N[C@@H]3CCN(C(=O)Oc4cccc(OCc5ccccc5)c4)C3)c2)cn1", "pIC50": "< 6.00"}
{"chemical-smiles": "Cn1cc(-c2cnc(N)c(C(=O)N[C@@H]3CCN(C(=O)c4ccc(-c5ccc6ccccc6c5)cc4)C3)c2)cn1", "pIC50": "7.00 to 8.00"}
{"chemical-smiles": "CS(=O)(=O)Nc1ccc(-c2cnc(N)c(C(=O)N[C@@H]3CCN(C(=O)c4ccc(-c5ccccc5Cl)cc4)C3)c2)cc1", "pIC50": "6.00 to 7.00"}
{"chemical-smiles": "COC[C@H](C)Nc1ncc2c(-c3cnn(C(C)(C)CO)c3)cc([C@H]3CC[C@H](O)CC3)n2n1", "pIC50": "≥ 7.00"}
{"chemical-smiles": "COC[C@H](C)Nc1ncc2c(-c3cnnc(C)c3)cc([C@H]3CC[C@H](O)CC3)n2n1", "pIC50": "≥ 7.00"}
